- System: Mites
- Assay info: Cut-Stem Systemic Test (Mites)
- Type: in vivo
- Settings: 100 ppm. emulsion, 3 days
Listed below: % Mortality, Mites (Systemic Insecticidal Activity) values for each entry.
Report the value in % with no unit label.

// below: answered compounds
{"Compound": "COP(=S)(OC)SCSC(C)(C)c1ccc(Cl)cc1", "Data value": 100}
{"Compound": "CCOP(=S)(OCC)SCSC(C)(C)c1ccc(Cl)c(Cl)c1", "Data value": 100}
{"Compound": "COP(=S)(OC)SCSC(C)(C)c1ccc(Cl)c(Cl)c1", "Data value": 30}

Proceeding to the next compound to report its % Mortality, Mites (Systemic Insecticidal Activity).
Exam item: Field: % Mortality, Mites (Systemic Insecticidal Activity) (Mites). Entry: COP(=O)(SC)SCSC(C)(C)c1ccc(Cl)cc1 (stereo not shown)
Marked response: 30

---

Measured mortality at 100 ppm accompanies every entry in the list below.
- System: Two-spotted Spider Mite (Tetranychus urticae)
- Assay info: E. Two-spotted Spider Mite plant-dip test
- Type: in vivo
- Settings: 48 h, 100 ppm., 2 days, read-out: Percent Mortality, Two-spotted Spider Mite
Give the number; % is assumed, so skip it.

Take a look at these entries with their results.
{"Compound": "COP(=O)(SC)SCSC(C)(C)c1ccc(Cl)cc1 (centres unmarked) [drawing 23]", "Experimental target": "Two-spotted Spider Mite (Tetranychus urticae)", "Scale unit": "%", "mortality at 100 ppm": 0}
{"Compound": "CCOP(=S)(OCC)SCSC(C)c1ccccc1 (centres unmarked) [drawing 7]", "Experimental target": "Two-spotted Spider Mite (Tetranychus urticae)", "Scale unit": "%", "mortality at 100 ppm": 0}
{"Compound": "CCOP(=S)(OCC)SCSC(C)(C)c1ccc(Cl)c(Cl)c1 [drawing 20]", "Experimental target": "Two-spotted Spider Mite (Tetranychus urticae)", "Scale unit": "%", "mortality at 100 ppm": 100}
{"Compound": "COP(=S)(OC)SCSC(C)(C)c1ccc(Br)cc1 [drawing 19]", "Experimental target": "Two-spotted Spider Mite (Tetranychus urticae)", "Scale unit": "%", "mortality at 100 ppm": 100}

Exam item: I'm curious: which mortality at 100 ppm was measured for COP(=S)(OC)SCSC(C)(C)c1ccccc1 [drawing 13] tested on Two-spotted Spider Mite (Tetranychus urticae)?
Marked response: 100

---

- Assay info: Mammalian Toxicity Studies (LD50 for Rats)
- Design: species or system male albino rats (Carworth Farms Nelson strain)
- Settings: rat, in vivo; 14-day observation; corn oil
- Protocol: Twenty male albino rats or mice of the Carworth Farms Nelson strain (CFI strain for mice)(or other suitable strain) weighing approximately 90 to 120 grams (18-20g. for mice) are selected. Basically, these animals are fasted 24 hours before dosing. Mice are not fasted. For materials which are soluble or easily dispersed in an aqueous medium, a 20% solution or suspension is prepared in an aqueous solution of 0.2% agar and 0.1% "Tween" 80. […]
Measure name: LD50 at 336 h

Examples with their reported LD50 at 336 h follow.
{"Compound": "COP(=S)(OC)SCSC(C)(C)c1cccc(Cl)c1Cl", "Measure name": "LD50 at 336 h", "Data value": "> 500 mg/kg"}
{"Compound": "CCOP(=S)(OCC)SCSCC [reference compound]", "Measure name": "LD50 at 336 h", "Data value": "1 to 5 mg/kg"}

Now for a further compound.
Exam item: Find the recorded LD50 at 336 h belonging to COP(=S)(OC)SCSC(C)(C)c1ccc(Cl)c(Cl)c1 and report it.
Marked response: > 200 mg/kg

Origin of the recorded values: patent US4000269A
